# tested system: KiSS-1 receptor (Homo sapiens, UniProt Q969F8)
# Sequence (Q969F8 whole entry): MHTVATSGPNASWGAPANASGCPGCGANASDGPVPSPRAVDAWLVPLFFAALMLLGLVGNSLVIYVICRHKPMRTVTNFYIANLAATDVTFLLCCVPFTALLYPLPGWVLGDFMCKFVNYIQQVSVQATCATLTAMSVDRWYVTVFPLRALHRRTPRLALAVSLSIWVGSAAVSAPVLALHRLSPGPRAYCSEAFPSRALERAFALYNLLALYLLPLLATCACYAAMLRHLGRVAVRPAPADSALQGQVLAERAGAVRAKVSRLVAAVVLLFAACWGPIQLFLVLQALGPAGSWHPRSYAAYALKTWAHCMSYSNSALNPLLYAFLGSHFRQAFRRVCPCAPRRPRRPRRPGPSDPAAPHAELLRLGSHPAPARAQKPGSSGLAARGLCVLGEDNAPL
# assay explanation: Displacement of [125I]metastin from human GPR54 receptor expressed in CHO cells
# Format: cell-based
# T = IC50 below 20 nM (exclusive); F = IC50 at/above 20 nM

{"compound structure": "CNCC(=O)Nc1cccc(-c2cc(-c3ccc(F)cc3O)nc(NC(=O)c3ccco3)c2C#N)c1", "class name": "T"}
{"compound structure": "CN1CCC[C@H]1CC(=O)Nc1cccc(-c2cc(-c3ccc(F)cc3O)nc(NC(=O)c3ccco3)c2C#N)c1", "class name": "T"}
{"compound structure": "CN1CCN(Cc2cccc(-c3cc(-c4ccc(F)cc4O)nc(NC(=O)c4ccco4)c3C#N)c2)CC1", "class name": "T"}
{"compound structure": "N#Cc1c(-c2cccc(CN3CCNCC3)c2)cc(-c2ccc(F)cc2O)nc1NC(=O)c1ccco1", "class name": "T"}
{"compound structure": "N#Cc1c(-c2cccc(CN3CCCNCC3)c2)cc(-c2ccc(F)cc2O)nc1NC(=O)c1ccco1", "class name": "F"}

// provenance: ChEMBL document CHEMBL1177674
